- testedSystem: T1, Recombinant human EGFR-Fc (aa 1-645 of the extracellular domain of human EGFR fused to human Fc) (human, UniProt P00533 25-645)
- T1 construct: range 1-645; bought from R&D Systems; also called EGFR645-Fc; EGFR-Fc (HER-1); not shown: human Fc
- assayNotes: SPR Biacore, EGFR645-Fc
measuredProperty: kon (M⁻¹ s⁻¹)
One number for each entry, in M⁻¹ s⁻¹.

# binder, kon [M⁻¹ s⁻¹]
measured = [
    ("I1-GSGCGS8-E5 pegylated (designed binder, PEG on the Cys of the GSGCGS8 linker, alternative clone of I1-GS10-E5 pegylated; tail of first monomer EIEK (D to E); also called I1-GSGCGS8-E5(3)) MGVSDVPRDLEVVAATPTSLLISWSARLKVARYYRITYGETGGNSPVQEFTVPKNVYTATISGLKPGVDYTITVYAVTRFRDYQPISINYRTEIEKGSGCGSGSGSGSGSGSGSGSVSDVPRDLEVVAATPTSLLISWWAPVDRYQYYRITYGETGGNSPVQEFTVPRDVYTATISGLKPGVDYTITVYAVTDYKPHADGPHTYHESPISINYRTEHHHHHH", 29400),
    ("I1(S62C)-GS10-E5 pegylated (designed binder, PEG on Cys at position 62 of I1 (position of SEQ ID NO: 1), also called I1(S62C)-GS10-E5(5)) MGVSDVPRDLEVVAATPTSLLISWSARLKVARYYRITYGETGGNSPVQEFTVPKNVYTATICGLKPGVDYTITVYAVTRFRDYQPISINYRTEIEKGSGSGSGSGSGSGSGSGSGSVSDVPRDLEVVAATPTSLLISWWAPVDRYQYYRITYGETGGNSPVQEFTVPRDVYTATISGLKPGVDYTITVYAVTDYKPHADGPHTYHESPISINYRTEHHHHHH", 22800),
]

Note: attention shifts to another entry.
[in] Return the recorded kon value; entry: I1-GS10-E5(S91C) pegylated (designed binder, PEG on Cys at position 91 of E5 (position of SEQ ID NO: 1), also called I1-GS10-E5(S91C)(8)) MGVSDVPRDLEVVAATPTSLLISWSARLKVARYYRITYGETGGNSPVQEFTVPKNVYTATISGLKPGVDYTITVYAVTRFRDYQPISINYRTEIEKGSGSGSGSGSGSGSGSGSGSVSDVPRDLEVVAATPTSLLISWWAPVDRYQYYRITYGETGGNSPVQEFTVPRDVYTATISGLKPGVDYTITVYAVTDYKPHADGPHTYHESPICINYRTEHHHHHH
[out] 10800
